The origin of these recorded values is patent US10821096B1.

# measured-target: NS3 (Hepatitis C virus genotype 4a, UniProt O39929, A1087S/A1113S/A1121T/A1128S/I1140V/I1160T/I1179L/R1118K/R1176A/S1127A)
# Construct: NS3 protease domain 1-181 aa+N-terminal T7 tag and C-terminal His tag; T7 tag (N); made in house; host or cells: E. coli Rosette (DE3) pLysS, vector pET-3a
# Sequence (O39929 1027-1207 A1087S/A1113S/R1118K/A1121T/S1127A/A1128S/I1140V/I1160T/R1176A/I1179L): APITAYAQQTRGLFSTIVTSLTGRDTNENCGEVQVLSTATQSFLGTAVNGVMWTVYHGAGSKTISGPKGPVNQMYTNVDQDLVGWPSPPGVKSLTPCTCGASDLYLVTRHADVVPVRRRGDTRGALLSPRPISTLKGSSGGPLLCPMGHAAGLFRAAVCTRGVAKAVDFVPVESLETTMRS
# experiment-summary: Binding and competition assay (fluorescence anisotropy, displacement of FITC-NS4A from NS3)
# Design: species or system HCV genotype 4a
# condition-info: dissociation constant (reproducibility check), another batch of the expressed NS3 protein, same procedure
# Protocol: Binding buffer (20 mM HEPES, 10 mM DTT, 200 mM NaCl, pH 7.6), a mixture of NS3 (1.8 μM) and FITC-NS4A ([…]) at the calculated affinity constant concentration were placed in a 96-well plate as binding test solution. […] The binding affinity test was performed using fluorescence anisotropy technique. In this test, maximum fluorescence was first determined at optimal ratio of NS3 (1.8 μM) and FITC-NS4A (0.1 μM). […]
measured-quantity: Kd (µM)
Answers are plain numbers, in µM.

Fill in the blank: the reported Kd of CCCCCNC(=O)c1ncc(C(=O)NCCCCNC(=N)N)[nH]1 [MOC-23] is ____. 7.81
